- TARGET OF ASSAY: S. mansoni TGR (Schistosoma mansoni)
I'd appreciate it if you could supply activity values for the items below.
Numbers only, in %.

Would you please look over these solved cases?
MOLECULE	NUMBER
CC(=O)OC[C@H]1O[C@@H]([S-])[C@H](OC(C)=O)[C@@H](OC(C)=O)[C@@H]1OC(C)=O.CCP(CC)CC.[Au+] [AF, auranofin]	0
Cc1c(-c2cnccn2)ssc1=S [OPZ, oltipraz]	13
Cc1cc2nc3cc(C)c(N)cc3[n+](-c3ccccc3)c2cc1N [Safranin]	75

# map each molecule to its activity
1. O=C1C=CC(=O)c2ccccc21 [Compound M5]
2. O=C(O)CC([S-])C(=O)O.[Au+] (centres unmarked) [Aurothiomalate]

Marked response:
1. 37
2. 0

###

- TARGET OF ASSAY: S. mansoni TGR (Schistosoma mansoni)
- RUN DESCRIPTION: Kinetic analysis of recombinant S. mansoni TGR with substrates
- CONDITIONS USED: substrate of TGR (20 nM), 25 °C, pH 7.4, 100 μM NADPH; ± SD
- Method: Kinetic parameters were determined using Lineweaver–Burk plots using KaleidaGraph 4 (Synergy Software, http://www.synergy.com) least squares best fit of data and varying concentrations of one substrate while maintaining the concentration of other substrates. […] All assays were done in triplicate.
I'd appreciate it if you could supply Km values for the items below.
Numbers only, in µM.

Would you please look over these solved cases?
COMPOUND	TARGET OF ASSAY	SCALE UNIT	Km
OCCSSCCO [HED, β-hydroxyethyl disulfide]	S. mansoni TGR (Schistosoma mansoni)	µM	1870
O=[Se]([O-])[O-].[Na+].[Na+] [Na2SeO3, sodium selenite]	S. mansoni TGR (Schistosoma mansoni)	µM	66.7

# map each compound to its Km
1. NC(=O)C1=CN([C@@H]2O[C@H](COP(=O)(O)OP(=O)(O)OC[C@H]3O[C@@H](n4cnc5c(N)ncnc54)[C@H](OP(=O)(O)O)[C@@H]3O)[C@@H](O)[C@H]2O)C=CC1 [NADPH]
2. CC(C)(C)OO [t-Butyl-OOH, tert-butyl hydroperoxide]
3. OO [Compound H2O2, H2O2]
4. O=C(O)CCCC[C@@H]1CCSS1 (racemic) [Lipoic acid]
5. O=C(O)c1cc(SSc2ccc([N+](=O)[O-])c(C(=O)O)c2)ccc1[N+](=O)[O-] [DTNB, 5,5′-dithiobis(2-nitrobenzoic acid)]

Marked response:
13.7
48600
68000
2610
114

###

- TARGET OF ASSAY: S. mansoni TGR (Schistosoma mansoni, UniProt Q962Y6)
- Sequence (Q962Y6 1-598): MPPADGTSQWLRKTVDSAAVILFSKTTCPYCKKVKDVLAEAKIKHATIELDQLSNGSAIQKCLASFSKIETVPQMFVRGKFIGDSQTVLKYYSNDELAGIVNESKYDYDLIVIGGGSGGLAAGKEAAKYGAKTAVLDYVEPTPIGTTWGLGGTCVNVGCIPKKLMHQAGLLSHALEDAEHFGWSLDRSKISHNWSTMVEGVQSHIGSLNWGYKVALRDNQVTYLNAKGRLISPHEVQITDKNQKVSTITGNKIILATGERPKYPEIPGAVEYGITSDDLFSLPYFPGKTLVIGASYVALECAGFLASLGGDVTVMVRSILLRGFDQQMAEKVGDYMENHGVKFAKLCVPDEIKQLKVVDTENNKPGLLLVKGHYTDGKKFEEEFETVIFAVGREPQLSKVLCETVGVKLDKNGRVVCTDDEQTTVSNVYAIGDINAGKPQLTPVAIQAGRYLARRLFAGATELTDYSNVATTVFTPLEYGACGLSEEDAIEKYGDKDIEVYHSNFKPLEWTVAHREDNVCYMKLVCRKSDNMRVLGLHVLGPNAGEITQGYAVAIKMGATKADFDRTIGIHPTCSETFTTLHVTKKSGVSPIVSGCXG
- RUN DESCRIPTION: Kinetic analysis of recombinant S. mansoni TGR with substrates
- CONDITIONS USED: substrate of TGR (20 nM), 25 °C, pH 7.4, 100 μM NADPH; ± SD
PARAMETER: Vmax (µM/min)
One number for each entry, in µM/min.

Would you please look over these solved cases?
MOLECULE	SCALE UNIT	Vmax
O=C(O)c1cc(SSc2ccc([N+](=O)[O-])c(C(=O)O)c2)ccc1[N+](=O)[O-]	µM/min	19.2
OCCSSCCO [HED, β-hydroxyethyl disulfide]	µM/min	21.4
CC(C)(C)OO [t-Butyl-OOH, tert-butyl hydroperoxide]	µM/min	12.8

# map each molecule to its Vmax
1. NC(=O)C1=CN([C@@H]2O[C@H](COP(=O)(O)OP(=O)(O)OC[C@H]3O[C@@H](n4cnc5c(N)ncnc54)[C@H](OP(=O)(O)O)[C@@H]3O)[C@@H](O)[C@H]2O)C=CC1
2. O=[Se]([O-])[O-].[Na+].[Na+] [Na2SeO3, sodium selenite]
3. OO
4. O=C(O)CCCC[C@@H]1CCSS1 (racemic)

Marked response:
[25.1, 2.54, 11.3, 2.03]
